test system: human Peripheral Blood Mononuclear Cells; test: In vitro activation of human PBMC, tritiated thymidine incorporation; type: cell-based; details: Peptide 3 micro g/ml; three days; Control 370
measured_property: incorporation of 3H thymidine

Name the recorded incorporation of 3H thymidine for RETVEREKE (Hepreceptor peptide) [Rupe614] .
499 radioactive counts per minute

Name the recorded incorporation of 3H thymidine for KRRETVER (Hepreceptor peptide) [Rupe411] .
420 radioactive counts per minute

Name the recorded incorporation of 3H thymidine for TEKKRRETVER (Hepreceptor peptide) [Rupe111] .
486 radioactive counts per minute

Name the recorded incorporation of 3H thymidine for KKRRETVERE (Hepreceptor peptide) [Rupe312] .
455 radioactive counts per minute

Name the recorded incorporation of 3H thymidine for KRRETVEREKE (Hepreceptor peptide) [Rupe414] .
437 radioactive counts per minute

Name the recorded incorporation of 3H thymidine for TEKKRRETV (Hepreceptor peptide) [Rupe19] .
502 radioactive counts per minute

---

test system: human Peripheral Blood Mononuclear Cells; assay: In vitro activation of human PBMC, tritiated thymidine incorporation; assay type: cell-based; details: Peptide 0.003 micro g/ml; three days; Control 370
measured_property: incorporation of 3H thymidine

Name the recorded incorporation of 3H thymidine for TEKKRRETVER (Hepreceptor peptide) [Rupe111] .
665 radioactive counts per minute

Name the recorded incorporation of 3H thymidine for KKRRETVERE (Hepreceptor peptide) [Rupe312] .
3222 radioactive counts per minute

Name the recorded incorporation of 3H thymidine for KRRETVER (Hepreceptor peptide) [Rupe411] .
598 radioactive counts per minute

Name the recorded incorporation of 3H thymidine for RETVEREKE (Hepreceptor peptide) [Rupe614] .
752 radioactive counts per minute

Name the recorded incorporation of 3H thymidine for TEKKRRETV (Hepreceptor peptide) [Rupe19] .
756 radioactive counts per minute

Name the recorded incorporation of 3H thymidine for KRRETVEREKE (Hepreceptor peptide) [Rupe414] .
2087 radioactive counts per minute

---

system: human Peripheral Blood Mononuclear Cells; test: In vitro activation of human PBMC, tritiated thymidine incorporation; type: cell-based; settings: Peptide 0.3 micro g/ml; three days; Control 370
measured_property: incorporation of 3H thymidine

Item KKRRETVERE (Hepreceptor peptide) [Rupe312] with human Peripheral Blood Mononuclear Cells - incorporation of 3H thymidine?
611 radioactive counts per minute

Item RETVEREKE (Hepreceptor peptide) [Rupe614] with human Peripheral Blood Mononuclear Cells - incorporation of 3H thymidine?
635 radioactive counts per minute

Item KRRETVER (Hepreceptor peptide) [Rupe411] with human Peripheral Blood Mononuclear Cells - incorporation of 3H thymidine?
486 radioactive counts per minute

Item KRRETVEREKE (Hepreceptor peptide) [Rupe414] with human Peripheral Blood Mononuclear Cells - incorporation of 3H thymidine?
492 radioactive counts per minute

Item TEKKRRETV (Hepreceptor peptide) [Rupe19] with human Peripheral Blood Mononuclear Cells - incorporation of 3H thymidine?
563 radioactive counts per minute

Item TEKKRRETVER (Hepreceptor peptide) [Rupe111] with human Peripheral Blood Mononuclear Cells - incorporation of 3H thymidine?
668 radioactive counts per minute

Reference source for all entries: patent US6849596B1
